Attribute: log10 of Relative cAMP EC50, nM (0.1% casein)
Biological target: T1, human GIP receptor (human) (UniProt P48546)
T1 sequence (looked up): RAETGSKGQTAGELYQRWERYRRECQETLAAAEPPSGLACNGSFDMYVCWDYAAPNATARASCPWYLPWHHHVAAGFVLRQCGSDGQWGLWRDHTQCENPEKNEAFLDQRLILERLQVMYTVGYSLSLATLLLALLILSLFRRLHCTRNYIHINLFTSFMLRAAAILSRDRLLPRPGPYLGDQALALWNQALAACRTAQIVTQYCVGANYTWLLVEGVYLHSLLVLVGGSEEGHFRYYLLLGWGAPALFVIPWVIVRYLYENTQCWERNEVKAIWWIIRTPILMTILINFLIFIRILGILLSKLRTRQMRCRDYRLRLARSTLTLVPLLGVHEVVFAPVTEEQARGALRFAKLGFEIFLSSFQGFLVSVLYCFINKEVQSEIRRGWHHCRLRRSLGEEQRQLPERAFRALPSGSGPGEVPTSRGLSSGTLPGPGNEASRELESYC
Assay: cell-based or functional assay
Hello, just confirming the data are log10 of Relative cAMP EC50, nM (0.1% casein) with units of nM.

Take a look at these entries with their results.
YXQGTXTSDXXIXLDXKAQXXFIEYLIEGGPSSGAPEPSEG (synthetic construct; SITE 2: note = 2-Aminoisobutyric Acid; SITE 6: note = alpha-methyl-2-fluoro-L-phenylalanine; SITE 10: note = 3-(4-Pyridyl)-L-alanine; SITE 11: note = alpha-methyl-L-serine; SITE 13: note = alpha-methyl-leucine; SITE 16: note = L-ornithine; SITE 17: note = Lysine is chemically mo) [Example 492]    -1.92
YXQGTFTSDXSXXLDKKAQXAFIEYLLEXGPSSGAPPPSGS (non-natural residues; lysine acylated AEEA-γGlu-C18 diacid; C-terminal amide; synthetic construct; SITE 2: note = 2-Aminoisobutyric Acid; SITE 10: note = 4-cyano-L-phenylalanine; SITE 12: note = L-ornithine; SITE 13: note = alpha-methyl-leucine; SITE 17: note = Lysine is chemically modified through conjugation of the epsilon-amino group of the Lysine side chain with (2-[2-(2-) [Example 191]    -0.37
YXQGTXTSDYXILLDKKAQXAFIEYLEEGGPSSGAPPPE (synthetic construct; SITE 2: note = 2-Aminoisobutyric Acid; SITE 6: note = alpha-methyl-2-fluoro-L-phenylalanine; SITE 11: note = alpha-methyl-L-serine; SITE 17: note = Lysine is chemically modified through conjugation of the epsilon-amino group of the Lysine side chain with (2-[2-(2-Amino-ethoxy)-e)) [Example 468]    -1.65
YXQGTXTSDXXIXLDXKAQXNFIEYLIEGGPSSGEPPPEEG (synthetic construct; SITE 2: note = 2-Aminoisobutyric Acid; SITE 6: note = alpha-methyl-2-fluoro-L-phenylalanine; SITE 10: note = 3-(4-Pyridyl)-L-alanine; SITE 11: note = alpha-methyl-L-serine; SITE 13: note = alpha-methyl-leucine; SITE 16: note = L-ornithine; SITE 17: note = Lysine is chemically mo) [Example 482]    -1.86
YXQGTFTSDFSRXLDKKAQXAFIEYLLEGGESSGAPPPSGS (Aib, alpha-methyl-Leu, lipidated Lys, C-terminal amide; synthetic construct; SITE 2: note = 2-Aminoisobutyric Acid; SITE 13: note = alpha-methyl-leucine; SITE 17: note = Lysine is chemically modified through conjugation of the epsilon-amino group of the Lysine side chain with (2-[2-(2-Amino-ethoxy)-ethoxy]-acetyl)2-(gamma-Glu)-CO-(CH2 )16-CO2H; SITE 20:) [Example 149]    -0.34

According to the records, this binder YXQGTXTSDXXIXLDXKAQXXFIEXLIEGGPSSGEPPPE (synthetic construct; SITE 2: note = 2-Aminoisobutyric Acid; SITE 6: note = alpha-methyl-2-fluoro-L-phenylalanine; SITE 10: note = 3-(4-Pyridyl)-L-alanine; SITE 11: note = alpha-methyl-L-serine; SITE 13: note = alpha-methyl-leucine; SITE 16: note = L-ornithine; SITE 17: note = Lysine is chemically mo) [Example 453] displays log10 of Relative cAMP EC50, nM (0.1% casein) of -1.74
